Experiment: solubility of ITI-007 free base in solvents
Type: physicochemical
Conditions: dioxane, organic solvent or mixture
reportedMetric: solubility

The compound listed as CN1CCN2c3c(cccc31)[C@@H]1CN(CCCC(=O)c3ccc(F)cc3)CC[C@@H]12 shows solubility equal to > 50 mg/mL

* * *

Assay: solubility of ITI-007 free base in solvents
Assay type: physicochemical
Conditions: ethanol, organic solvent or mixture
reportedMetric: solubility

The molecule listed as CN1CCN2c3c(cccc31)[C@@H]1CN(CCCC(=O)c3ccc(F)cc3)CC[C@@H]12 shows solubility equal to > 50 mg/mL

* * *

Experiment: solubility of ITI-007 free base in solvents
Type: physicochemical
Conditions: methanol, organic solvent or mixture
reportedMetric: solubility

The compound listed as CN1CCN2c3c(cccc31)[C@@H]1CN(CCCC(=O)c3ccc(F)cc3)CC[C@@H]12 shows solubility equal to > 50 mg/mL

Hello, the source for this data is patent US12280048B2, in case you need it.
